Tested on: PPARg:RXRa IVT, anti-PPARg (NR concentration 270 nM, RXRa partner concentration 90 nM)
Assay: PBM binding z-score (relative to random genomic background probes); higher = stronger binding; sequences stand for … in GC…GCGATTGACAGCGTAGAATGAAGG
Each entry gets Criterion not met if its PBM binding z-score stays under 0.8, and Criterion met if its PBM binding z-score is 0.8 or above.

construct.sequence: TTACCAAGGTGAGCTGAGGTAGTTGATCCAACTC
classification: Criterion met

Note: attention shifts to another entry.
Assess whether reported PBM binding z-score for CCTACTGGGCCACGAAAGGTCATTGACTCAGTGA sits at 0.8 or higher. Criterion met

* * *

Test system: PXR homodimer (NR concentration 270 nM)
Test: PBM binding z-score (relative to random genomic background probes); higher = stronger binding; sequences stand for … in GC…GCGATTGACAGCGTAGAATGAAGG
measurement.type: PBM binding z-score
Output: the number by itself.

Reference set, count: 3
construct.sequence: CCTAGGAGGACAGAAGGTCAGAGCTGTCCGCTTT
test.value: -0.0903

construct.sequence: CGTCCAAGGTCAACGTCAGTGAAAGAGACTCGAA
test.value: 0.793

construct.sequence: TCATATAGGTAAAGGTGAAAGACGAACGATATGA
test.value: -0.0893

// next item, PBM binding z-score requested
Could you tell me which PBM binding z-score is on file for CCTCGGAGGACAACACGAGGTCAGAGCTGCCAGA ? 0.779

* * *

Test system: PPARg:RXRa (NR concentration 180 nM, RXRa partner concentration 90 nM)
Assay: PBM binding z-score (relative to random genomic background probes); higher = stronger binding; sequences stand for … in GC…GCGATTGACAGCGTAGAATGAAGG
measurement.type: PBM binding z-score

construct.sequence: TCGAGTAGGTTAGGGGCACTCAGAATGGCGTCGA
test.value: 0.844
--
construct.sequence: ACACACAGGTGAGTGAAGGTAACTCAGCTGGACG
test.value: 0.931
--
construct.sequence: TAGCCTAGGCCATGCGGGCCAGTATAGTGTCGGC
test.value: -0.313
--
construct.sequence: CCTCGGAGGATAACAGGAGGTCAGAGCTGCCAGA
test.value: 0.275
--
construct.sequence: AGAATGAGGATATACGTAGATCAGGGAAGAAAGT
test.value: 0.977
--
construct.sequence: TCTGCTAGGTCCGTTGGTCAGCTAACGAGCTGCC
test.value: -1.2

// next item, PBM binding z-score requested
Could you tell me which PBM binding z-score is on file for ACAATTAGTTGACTTAGGGCAACCGATACGACGC ? 1.03

* * *

Tested on: RXRa DBDmut IVT, anti-RXR (DBD mutation: RXRa K156A/R161A, NR concentration 90 nM)
Assay: PBM binding z-score (relative to random genomic background probes); higher = stronger binding; sequences stand for … in GC…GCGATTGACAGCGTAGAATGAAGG
PBM binding z-score overview
Output: the number by itself.

construct.sequence: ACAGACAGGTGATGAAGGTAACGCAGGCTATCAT
measurement.type: PBM binding z-score
test.value: -0.195
--
construct.sequence: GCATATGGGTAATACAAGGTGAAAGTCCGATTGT
measurement.type: PBM binding z-score
test.value: 0.208
--
construct.sequence: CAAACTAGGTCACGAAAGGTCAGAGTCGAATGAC
measurement.type: PBM binding z-score
test.value: 2.37
--
construct.sequence: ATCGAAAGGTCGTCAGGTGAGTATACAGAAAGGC
measurement.type: PBM binding z-score
test.value: 2.04

Could you tell me which PBM binding z-score is on file for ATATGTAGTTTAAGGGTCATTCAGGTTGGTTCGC ? 2.39

* * *

Tested on: LXRa:RXRa (NR concentration 270 nM, RXRa partner concentration 90 nM)
Assay: PBM binding z-score (relative to random genomic background probes); higher = stronger binding; sequences stand for … in GC…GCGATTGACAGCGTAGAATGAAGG
Each entry falls in a class defined on PBM binding z-score; the bands are lower range: < 0.3; middle range: ≥ 0.3 and < 0.8; upper range: ≥ 0.8

Record excerpt, results attached:
construct.sequence: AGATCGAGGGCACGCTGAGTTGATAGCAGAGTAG
classification: middle range
--
construct.sequence: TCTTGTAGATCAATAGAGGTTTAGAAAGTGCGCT
classification: lower range

Textbook exercise: identify the category of the sequence given here, TCATATGGGTAAACAGGTGAAAGTCCGTAAGTTA , according to its measured value. middle range

Can you check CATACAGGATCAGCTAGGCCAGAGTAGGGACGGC next? lower range

* * *

PBM binding z-score overview
Tested on: PPARa:RXRa (NR concentration 270 nM, RXRa partner concentration 90 nM)
Test: PBM binding z-score (relative to random genomic background probes); higher = stronger binding; sequences stand for … in GC…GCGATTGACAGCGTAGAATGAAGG
Output: the number by itself.

Reference set, count: 3
construct.sequence: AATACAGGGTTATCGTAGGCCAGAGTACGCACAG
PBM binding z-score: 2.55

construct.sequence: TCATATAGGTAATGGTGAAAGTCGAACGATATGA
PBM binding z-score: 1.22

construct.sequence: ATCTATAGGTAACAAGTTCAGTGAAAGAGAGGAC
PBM binding z-score: 1.64

Could you tell me which PBM binding z-score is on file for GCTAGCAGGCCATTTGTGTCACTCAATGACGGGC ? -0.398

Can you check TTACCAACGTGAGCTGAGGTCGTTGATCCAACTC next? 0.553

Can you check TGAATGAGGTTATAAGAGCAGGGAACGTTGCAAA next? 2.86

* * *

System: RARg:RXRa (NR concentration 270 nM, RXRa partner concentration 90 nM)
Experiment: PBM binding z-score (relative to random genomic background probes); higher = stronger binding; sequences stand for … in GC…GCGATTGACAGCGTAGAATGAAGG
PBM binding z-score overview
Output: the number by itself.

Reference set, count: 5
construct.sequence: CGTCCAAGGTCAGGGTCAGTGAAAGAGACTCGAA
test.target: RARg:RXRa (NR concentration 270 nM, RXRa partner concentration 90 nM)
PBM binding z-score: 5.67
--
construct.sequence: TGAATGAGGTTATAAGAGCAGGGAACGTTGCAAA
test.target: RARg:RXRa (NR concentration 270 nM, RXRa partner concentration 90 nM)
PBM binding z-score: 1.47
--
construct.sequence: TGAATGAGGTTAAAGATCAGGGACCGTGGCGTCG
test.target: RARg:RXRa (NR concentration 270 nM, RXRa partner concentration 90 nM)
PBM binding z-score: 2.38
--
construct.sequence: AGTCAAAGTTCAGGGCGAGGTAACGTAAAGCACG
test.target: RARg:RXRa (NR concentration 270 nM, RXRa partner concentration 90 nM)
PBM binding z-score: 5.13
--
construct.sequence: ATCTCTAGGTAAACTTCAGTGAAAGATCGATAGA
test.target: RARg:RXRa (NR concentration 270 nM, RXRa partner concentration 90 nM)
PBM binding z-score: 0.307

Which measured PBM binding z-score belongs to AAAGACAGGTGAGTGAAGGTAACTCAGCTGGACG , tested on RARg:RXRa (NR concentration 270 nM, RXRa partner concentration 90 nM)? 0.293

* * *

Tested on: LXRb homodimer (NR concentration 270 nM)
Experiment: PBM binding z-score (relative to random genomic background probes); higher = stronger binding; sequences stand for … in GC…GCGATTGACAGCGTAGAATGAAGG
Each entry gets Criterion not met if its PBM binding z-score stays under 0.6, and Criterion met if its PBM binding z-score is 0.6 or above.

construct.sequence: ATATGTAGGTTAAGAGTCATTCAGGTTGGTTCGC
test.target: LXRb homodimer (NR concentration 270 nM)
classification: Criterion met

construct.sequence: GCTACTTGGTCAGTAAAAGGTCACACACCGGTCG
test.target: LXRb homodimer (NR concentration 270 nM)
classification: Criterion met

construct.sequence: GTACCAAGGTGAATAGGCCGTTGATGAGTAGGCG
test.target: LXRb homodimer (NR concentration 270 nM)
classification: Criterion not met

construct.sequence: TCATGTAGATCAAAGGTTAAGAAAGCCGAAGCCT
test.target: LXRb homodimer (NR concentration 270 nM)
classification: Criterion not met

construct.sequence: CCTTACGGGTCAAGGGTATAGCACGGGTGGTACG
test.target: LXRb homodimer (NR concentration 270 nM)
classification: Criterion not met

construct.sequence: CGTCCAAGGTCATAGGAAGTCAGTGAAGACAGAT
test.target: LXRb homodimer (NR concentration 270 nM)
classification: Criterion not met

Assess whether reported PBM binding z-score for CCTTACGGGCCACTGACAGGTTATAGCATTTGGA sits at 0.6 or higher. Criterion not met
